Test System: Albumin (Bos taurus, UniProt P02769)
Sequence (P02769 whole entry): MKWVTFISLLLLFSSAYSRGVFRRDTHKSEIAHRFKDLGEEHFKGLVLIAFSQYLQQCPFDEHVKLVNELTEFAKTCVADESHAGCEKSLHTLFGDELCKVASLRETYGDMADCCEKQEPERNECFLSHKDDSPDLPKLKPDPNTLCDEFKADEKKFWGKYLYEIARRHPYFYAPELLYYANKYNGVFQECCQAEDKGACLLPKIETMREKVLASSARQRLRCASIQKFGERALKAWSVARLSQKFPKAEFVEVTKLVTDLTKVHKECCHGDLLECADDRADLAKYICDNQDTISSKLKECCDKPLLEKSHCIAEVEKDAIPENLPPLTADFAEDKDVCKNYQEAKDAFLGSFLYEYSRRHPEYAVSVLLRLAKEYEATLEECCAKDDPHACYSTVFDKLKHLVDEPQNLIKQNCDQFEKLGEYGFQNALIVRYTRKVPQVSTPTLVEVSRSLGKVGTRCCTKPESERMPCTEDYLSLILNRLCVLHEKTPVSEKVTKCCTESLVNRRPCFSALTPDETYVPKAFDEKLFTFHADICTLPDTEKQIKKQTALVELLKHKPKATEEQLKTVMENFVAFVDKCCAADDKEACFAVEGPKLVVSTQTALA
Method Notes: Counterscreen for inhibitors of T-cell receptor (TCR)-CD3 interaction: Fluorescence-based biochemical high throughput dose response assay to identify inhibitors of T-cell receptor (TCR)-CD3 interaction using a TAMRA-labeled BSA probe.
Format: functional
Calls of active or inactive are those of the source. No rule for the calls is given here.
Parameter: IC50

Prompt: Which IC50 reading was recorded for the compound Cc1cc(Br)cc(/C=N/NC(=O)c2ccc3c(c2)OCO3)c1O ?
Response: > 94.1 µM (inactive)

Prompt: Try CC(=O)c1ccc(NC(=O)CN2C(=O)/C(=C/C(C)=C/c3ccccc3)SC2=S)cc1 next.
Response: > 94.1 µM (inactive)

Prompt: Repeat with COc1cccc(/C=C2/SC(=S)N(CC(=O)NNC(=O)c3ccccc3O)C2=O)c1
Response: > 94.1 µM (inactive)

Prompt: Item: O=C(Nc1cccc(S(=O)(=O)NC2=NCCC2)c1)c1cc(-c2ccco2)nc2ccccc12
Response: > 94.1 µM (inactive)

Prompt: Now consider COc1ccccc1C(=O)NNC(=O)c1ccc2ccccc2c1O .
Response: > 94.2 µM (inactive)

The reported measurements were obtained from ChEMBL document CHEMBL1201862.
